Would you kindly list pEC50 for each of these compounds?
- System: L6
- EXPERIMENT: Cytotoxicity against rat L6 cells incubated for 70 hrs by resazurin dye based assay
- Format: cell-based
- ASSAY SETUP: L6, 70 h
Units for pEC50: none; it is -log10 of a concentration expressed in mol/L.

`CC(=O)Nc1ccc2[nH]c(=O)n(CCCC(C)C)c(=O)c2c1` has a reported pEC50 of 3.76

Documented pEC50 of `O=c1[nH]c2ccc(-c3cccnc3)cc2c(=O)n1CCC1CCCCC1` : 4.85

Consider `CC(C)(C)C(=O)Nc1ccc2[nH]c(=O)n(CCC3CCCCC3)c(=O)c2c1` . Its measured pEC50 is 4.89

// pEC50 lookup, compound = `CC(=O)Nc1ccc2[nH]c(=O)n([C@H]3CC[C@H](OC(C)C)CC3)c(=O)c2c1` , result: 3.87

Record `CC[C@H]1CC[C@H](n2c(=O)[nH]c3ncc(NC(C)=O)cc3c2=O)CC1` . Reported pEC50: 3.67

Form: compound = `CC(=O)Nc1cnc2[nH]c(=O)n([C@H]3CC[C@H](C(C)(C)C)CC3)c(=O)c2c1` ; pEC50 = 4.17

Sample `CCC[C@H]1CC[C@H](n2c(=O)[nH]c3ccc(NC(C)=O)cc3c2=O)CC1` ; pEC50 observed: 4.96

Reported pEC50 of CC(=O)Nc1ccc2[nH]c(=O)n(C3CCN(C(=O)OC(C)(C)C)C3)c(=O)c2c1 (racemic) : 3.77

`CC(C)[C@H]1CC[C@@H](n2c(=O)[nH]c3ncc(N)cc3c2=O)CC1` has a reported pEC50 of 4.34

Lab note: `CCCCCCn1c(=O)[nH]c2ccc(NC(C)=O)cc2c1=O` gave pEC50 of 3.81

get_value(item= CC(=O)Nc1ccc2[nH]c(=O)n(C3CCC(C(C)(C)C)C3)c(=O)c2c1 (racemic) , readout=pEC50) returns 4.39

What the record says about `CC(=O)Nc1ccc2[nH]c(=O)n(C3CCN(C(=O)c4ccccc4)CC3)c(=O)c2c1` : pEC50 is 3.87

Record `CC(=O)Nc1ccc2[nH]c(=O)n([C@H]3CC[C@@H](NC(=O)OC(C)(C)C)CC3)c(=O)c2c1` , field pEC50: 3.93

`CC(=O)Nc1ccc2[nH]c(=O)n(CCCc3ccccc3)c(=O)c2c1` has a reported pEC50 of 3.87

For this compound ( `CC(=O)Nc1ccc2[nH]c(=O)n(C(C)(C)C)c(=O)c2c1` ), measured pEC50 is 4.43

The measured pEC50 associated with `CC(=O)Nc1ccc2[nH]c(=O)n(C3CCN(C(=O)OC(C)(C)C)CC3)c(=O)c2c1` reads 3.90

According to the records, this compound `CC(=O)Nc1ccc2[nH]c(=O)n(CCC(C)C)c(=O)c2c1` displays pEC50 of 3.79

The recorded pEC50 for entry `CC(=O)Nc1ccc2[nH]c(=O)n([C@H]3CC[C@H](C(C)(C)O)CC3)c(=O)c2c1` equals 3.87

The recorded pEC50 for CC(=O)Nc1ccc2[nH]c(=O)n([C@H]3CCO[C@@H](C(C)(C)C)C3)c(=O)c2c1 (racemic) is 3.90

// pEC50 value for `CC(=O)Nc1ccc2[nH]c(=O)n([C@H]3CC[C@H](OC(C)(C)C)CC3)c(=O)c2c1` : 3.91

Entry under test: CC(=O)Nc1ccc2[nH]c(=O)n(C3CCC(C)CC3)c(=O)c2c1 (mixture of isomers) . Its pEC50 was 4.27

Noted for `CC(=O)Nc1ccc2[nH]c(=O)n([C@H]3CC[C@H](C(C)(C)C)CC3)c(=O)c2c1` : its pEC50 reads 5.41

The value of pEC50 measured for the compound `CC(C)(C)[C@H]1CC[C@H](n2c(=O)[nH]c3ccc(N)cc3c2=O)CC1` turned out to be 4.68

// `CC[C@H]1CC[C@@H](n2c(=O)[nH]c3ncc(NC(C)=O)cc3c2=O)CC1` : pEC50 value = 4.32

# pEC50 (compound: `CC(=O)Nc1ccc2[nH]c(=O)n([C@H]3CC[C@H](C(F)(F)F)CC3)c(=O)c2c1` ) is 5.02

Note to self: pEC50 recorded for `Nc1ccc2[nH]c(=O)n(CCC3CCCCC3)c(=O)c2c1` was 4.72

// sample `CC(=O)Nc1cnc2[nH]c(=O)n([C@H]3CC[C@@H](C(C)(C)C)CC3)c(=O)c2c1` , its pEC50 was 4.82

response.value for `CC[C@H]1CC[C@@H](n2c(=O)[nH]c3ncc(N)cc3c2=O)CC1` (field: pEC50) = 3.60

For this compound ( `O=c1[nH]c2ccc(-c3ccncc3)cc2c(=O)n1CCC1CCCCC1` ), measured pEC50 is 4.85

# pEC50 of `CC(=O)Nc1ccc2[nH]c(=O)n([C@H](C)C3CCCCC3)c(=O)c2c1` = 4.06

Entry `CC(=O)Nc1ccc2[nH]c(=O)n([C@H]3CO[C@H](C(C)(C)C)OC3)c(=O)c2c1` ; pEC50 = 4.57

`CC(=O)Nc1ccc2[nH]c(=O)n(Cc3ccccc3)c(=O)c2c1` yielded pEC50 of 3.83

# pEC50 of `CC(=O)Nc1ccc2[nH]c(=O)n(CCC3CCCCC3)c(=O)c2c1` = 4.28

response.value for CC(=O)Nc1ccc2[nH]c(=O)n(C(CC3CCCCC3)C(N)=O)c(=O)c2c1 (centres undefined) (field: pEC50) = 3.65

pEC50 measured on `Cc1noc(C)c1-c1ccc2[nH]c(=O)n(CCC3CCCCC3)c(=O)c2c1` = 4.06

The reported value for `CC(C)[C@H]1CC[C@H](n2c(=O)[nH]c3ccc(N)cc3c2=O)CC1` in terms of pEC50 is 4.66

Lookup result for `CC(=O)Nc1ccc2[nH]c(=O)n(-c3ccc(C(C)(C)C)cc3)c(=O)c2c1` ; measured pEC50: 4.77

Value of measured pEC50 for the entry `CC(=O)Nc1ccc2[nH]c(=O)n([C@H]3CC[C@H](C(C)(C)F)CC3)c(=O)c2c1` : 4.77

Consider `CC(=O)Nc1ccc2[nH]c(=O)n([C@H]3CO[C@@H](C(C)(C)C)OC3)c(=O)c2c1` . Its measured pEC50 is 3.74
